From: patent US10703756B2

- ASSAY_TARGET: JAK3 enzyme (Homo sapiens, UniProt P52333)
- Sequence (P52333 whole entry, species assumed): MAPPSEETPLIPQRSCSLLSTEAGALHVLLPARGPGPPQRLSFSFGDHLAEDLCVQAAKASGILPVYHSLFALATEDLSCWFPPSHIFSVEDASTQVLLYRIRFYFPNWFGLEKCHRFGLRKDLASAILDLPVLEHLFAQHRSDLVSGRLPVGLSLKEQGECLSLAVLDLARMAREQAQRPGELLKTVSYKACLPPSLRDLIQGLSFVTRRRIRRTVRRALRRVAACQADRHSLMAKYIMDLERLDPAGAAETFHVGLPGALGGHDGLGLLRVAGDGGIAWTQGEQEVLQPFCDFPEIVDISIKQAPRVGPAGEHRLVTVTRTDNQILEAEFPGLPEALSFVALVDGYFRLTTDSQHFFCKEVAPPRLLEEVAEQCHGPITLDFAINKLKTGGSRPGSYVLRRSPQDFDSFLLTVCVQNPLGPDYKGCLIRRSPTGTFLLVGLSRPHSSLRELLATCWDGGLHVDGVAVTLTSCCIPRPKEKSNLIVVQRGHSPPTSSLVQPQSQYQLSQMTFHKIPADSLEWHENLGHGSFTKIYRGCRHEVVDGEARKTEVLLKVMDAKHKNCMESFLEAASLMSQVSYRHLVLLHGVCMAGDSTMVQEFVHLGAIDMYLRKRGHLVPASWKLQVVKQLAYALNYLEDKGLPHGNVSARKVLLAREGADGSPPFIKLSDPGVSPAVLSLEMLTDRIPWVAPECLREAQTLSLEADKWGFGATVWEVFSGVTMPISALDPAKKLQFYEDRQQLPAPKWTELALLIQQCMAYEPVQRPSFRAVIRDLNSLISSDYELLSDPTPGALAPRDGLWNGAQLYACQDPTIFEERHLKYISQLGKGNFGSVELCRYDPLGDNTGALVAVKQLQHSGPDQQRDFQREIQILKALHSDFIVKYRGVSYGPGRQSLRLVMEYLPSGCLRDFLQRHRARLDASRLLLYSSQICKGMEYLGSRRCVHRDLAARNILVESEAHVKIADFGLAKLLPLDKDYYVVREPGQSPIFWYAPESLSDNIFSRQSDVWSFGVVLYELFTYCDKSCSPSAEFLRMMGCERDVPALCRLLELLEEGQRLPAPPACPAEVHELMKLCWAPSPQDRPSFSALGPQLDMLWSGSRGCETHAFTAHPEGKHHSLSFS
- PROCEDURE_SUMMARY: JAK Caliper Enzyme Assay at 1 mM ATP
- Format: biochemical
Listed compounds paired with reported pIC50
pIC50 is defined as minus the log10 of a concentration measured in mol/L.

Completed entries (count: 2):
COMPOUND: C=CC(=O)N1CC[C@@H](Oc2cnc3[nH]cc(C(=O)NCC)c3n2)C[C@@H]1C (racemic) [Example 77]
pIC50: 6.94
//
COMPOUND: C=CC(=O)N1CCC(Oc2cnc3[nH]cc(C(=O)NCC4(O)CC[C@@H](C)C4)c3n2)CC1 (mixture of isomers)
pIC50: 6.37

Using the record for "C=CC(=O)N1CC[C@@H](Nc2cnc3[nH]cc(C(=O)NCC(C)(F)F)c3n2)[C@@H](OC)C1" , report its pIC50.
7.34

Using the record for C=CC(=O)N1CC[C@@H](Nc2cnc3[nH]cc(C(=O)NC4CCCC4)c3n2)[C@@H](OC)C1 (racemic) , report its pIC50.
7.24
